test system: BT-549 breast; assay: NCI-60 one-dose screen, 48 h (100 = growth as untreated, 0 = no growth, -100 = all killed); conditions: 10 µM unless noted
This is part of a sample that, as a whole, favours compounds with a hit. Of some 83,000 tested, about 20% had one in any assay. The source made the active and inactive calls. How the source made its calls: active means growth percent below 10; inactive means the rest.
Readout name: growth

Prompt line: Quick one: growth of CC([C@H]1CCC2C3CCC4C[C@@H](N)CC[C@]4(C)C3CC[C@@]21C)N(C)C (stereo partly specified) ?
Response line: 80.1% (inactive)

Prompt line: Quick one: growth of COc1cc(NC(=O)CSc2nc3ccc(Cl)cc3c(=O)n2-c2ccc(F)cc2)cc(OC)c1OC ?
Response line: 95.9% (inactive)

Prompt line: Quick one: growth of Cc1ccc(S(=O)(=O)Nc2cccc(Cn3c(=O)[nH]c4ccc(Oc5ncccn5)cc4c3=O)c2)cc1 ?
Response line: 65.2% (inactive)

Prompt line: Quick one: growth of COc1cc(/C(=C2/O[C@@H]([C@H]3COC(C)(C)O3)[C@H]3OC(C)(C)O[C@@H]23)c2ccc3c(c2)OCO3)cc(OC)c1OC ?
Response line: 79.5% (inactive)

Prompt line: Quick one: growth of CC(=O)OCC1O[C@@H](OC(C)=O)[C@@H](NC(=O)NS(=O)(=O)c2ccccc2)C(OC(C)=O)[C@@H]1OC(C)=O (stereo partly specified) ?
Response line: 102% (inactive)

Prompt line: Quick one: growth of COC(=O)c1ccc2[nH]c(O)c(C(=Nc3ccc(N(C)C(=O)CN4CCN(C)CC4)cc3)c3ccc([N+](=O)[O-])cc3)c2c1 ?
Response line: 49.1% (inactive)

Prompt line: Quick one: growth of CCCCCCCCCCCCCCCCNC(=S)N/N=C/c1ccc(O)cc1O ?
Response line: 83.5% (inactive)

Prompt line: Quick one: growth of O=C1CSC(c2ccccc2Cl)N1c1nnc(-c2ccncc2)o1 (stereo unspecified) ?
Response line: 116% (inactive)

Prompt line: Quick one: growth of CCOC(=O)NNc1[nH]c(-c2ccc(OC)cc2)cc1C#N ?
Response line: 101% (inactive)

Prompt line: Quick one: growth of CCC(C)CC(N)O (stereo unspecified) ?
Response line: 108% (inactive)

Prompt line: Quick one: growth of CCCNC(=O)Oc1ccc(/C(=C(/C)Cc2ccc(OC)cc2)c2ccc(OCCN3CCCCC3)cc2)cc1 ?
Response line: 92.9% (inactive)

Prompt line: Quick one: growth of CCCOC(=O)c1c(C)n(C)c2scc[n+]12 ?
Response line: 80.5% (inactive)

Prompt line: Quick one: growth of Cc1c(C(N)=O)sc2c1c(=O)n(Cc1ccccc1)c1nnc(S(C)(=O)=O)n21 ?
Response line: 78.9% (inactive)

Prompt line: Quick one: growth of Brc1ccc(-c2nc3ccccc3s2)cc1 ?
Response line: 101% (inactive)

Prompt line: Quick one: growth of Cc1nc2ccccc2c(=O)n1-c1cccc(OCc2cn(-c3cccc(O)c3)nn2)c1 ?
Response line: 99.8% (inactive)

Prompt line: Quick one: growth of CC#Cc1nc(Nc2cc(C)[nH]n2)c2ccccc2n1 ?
Response line: -61.9% [100 µM] (active)

Prompt line: Quick one: growth of Cc1nc2c(nnn2-c2ccccc2)c2nc(-c3ccccc3)oc(=O)c12 ?
Response line: 105% (inactive)

Prompt line: Quick one: growth of Cc1nc2c(nnn2-c2ccccc2)c2nc(-c3ccc(Cl)cc3)oc(=O)c12 ?
Response line: 107% (inactive)

Prompt line: Quick one: growth of COc1ccc(-c2nnc(SCC(=O)Nc3ccc(C(=O)/C=C/c4cc(OC)c(OC)c(OC)c4)cc3)n2-c2ccccc2)cc1OC ?
Response line: -94.7% [100 µM] (active)

Prompt line: Quick one: growth of Brc1c(-c2ccncc2)nc2n1CCS2 ?
Response line: 105% (inactive)

Prompt line: Quick one: growth of CC(C)(C)C(=O)CCCCCCCC/C=C/CCCC(O)c1ccco1 (stereo unspecified) ?
Response line: 105% (inactive)
